# Tested target: Recombinant human c-KIT kinase (Homo sapiens (Human))
# Sequence (P10721 26-976): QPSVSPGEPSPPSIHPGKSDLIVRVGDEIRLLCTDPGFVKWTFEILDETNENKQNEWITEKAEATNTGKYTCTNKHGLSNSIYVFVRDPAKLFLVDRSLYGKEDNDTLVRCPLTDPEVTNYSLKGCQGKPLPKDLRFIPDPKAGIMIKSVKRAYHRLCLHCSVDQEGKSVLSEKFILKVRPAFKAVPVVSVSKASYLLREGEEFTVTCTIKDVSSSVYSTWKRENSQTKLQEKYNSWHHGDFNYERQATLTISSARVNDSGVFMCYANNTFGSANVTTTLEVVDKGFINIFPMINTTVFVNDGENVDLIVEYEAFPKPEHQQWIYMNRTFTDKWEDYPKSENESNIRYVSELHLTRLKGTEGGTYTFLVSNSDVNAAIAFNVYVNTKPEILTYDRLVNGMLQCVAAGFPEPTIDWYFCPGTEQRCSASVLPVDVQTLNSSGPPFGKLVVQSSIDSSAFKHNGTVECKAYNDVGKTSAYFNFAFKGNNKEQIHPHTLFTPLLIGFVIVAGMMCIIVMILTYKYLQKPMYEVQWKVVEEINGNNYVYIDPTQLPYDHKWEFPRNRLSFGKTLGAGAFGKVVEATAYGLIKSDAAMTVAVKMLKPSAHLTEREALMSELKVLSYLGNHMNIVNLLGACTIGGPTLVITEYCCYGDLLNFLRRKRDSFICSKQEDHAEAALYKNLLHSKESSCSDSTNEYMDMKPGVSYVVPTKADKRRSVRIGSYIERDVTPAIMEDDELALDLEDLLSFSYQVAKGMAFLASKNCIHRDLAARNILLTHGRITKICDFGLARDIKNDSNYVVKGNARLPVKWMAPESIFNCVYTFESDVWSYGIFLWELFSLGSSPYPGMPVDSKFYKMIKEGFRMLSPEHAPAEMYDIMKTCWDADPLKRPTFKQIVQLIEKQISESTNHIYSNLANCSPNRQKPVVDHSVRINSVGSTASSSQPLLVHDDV
# Experiment description: c-KIT kinase chemiluminescence assay (ADP-Glo)
# Conditions: ATP 50 μM
pIC50: −log10 of the molar value.
Item-by-item account of pIC50

Some solved entries appear below for comparison.
- Input smiles: "Cc1ncc(-c2noc([C@H]3C[C@@H](OC(F)(F)F)C3)n2)cc1NC(=O)c1cnn2ccc(N3CC4(COC4)C3)cc12"
  Result value: "6.00 to 7.00"
- Input smiles: "Cc1ccc(-c2noc([C@H]3C[C@@H]3F)n2)cc1NC(=O)c1cnn2ccc(-c3cn(C45CC(F)(C4)C5)nn3)cc12"
  Result value: "> 7.00"
- Input smiles: "CC(=O)Nc1ccc(-c2ncc(C(=O)Nc3cc(-c4noc([C@H]5C[C@@H]5F)n4)ccc3C)o2)cc1"
  Result value: "6.00 to 7.00"
- Input smiles: "Cc1ccc(-c2noc([C@H]3C[C@@H]3F)n2)cc1NC(=O)c1cnc(-c2ccc3c(c2)CCC(=O)N3)o1"
  Result value: "6.00 to 7.00"
- Input smiles: "Cc1ccc(-c2noc([C@@H]3C[C@H]3C(F)F)n2)cc1NC(=O)c1cnn2ccc(N3CC4(COC4)C3)cc12"
  Result value: "> 7.00"

Tell us which pIC50 value is on record for "Cc1ccc(-c2noc([C@H]3C[C@@H]3F)n2)cc1NC(=O)c1cnc(-c2ccc(NS(C)(=O)=O)cc2)o1" 6.00 to 7.00

Tell us which pIC50 value is on record for "O=C(Nc1cc(-c2noc(N3CC(O)(C(F)(F)F)C3)n2)ccc1Cl)c1cnn2ccc(N3CC4(COC4)C3)cc12" > 7.00

Tell us which pIC50 value is on record for "COC(=O)N1CC(c2nc(-c3cc(NC(=O)c4cnc(-c5ccc6c(c5)CC(=O)N6)o4)c(C)cc3F)no2)C1" 6.00 to 7.00

Tell us which pIC50 value is on record for "Cc1ccc(-c2noc([C@H]3C[C@@H]3F)n2)cc1NC(=O)c1cnc(N2CC(C(=O)NC3CC3)C2)s1" < 6.00

Tell us which pIC50 value is on record for "Cc1ccc(-c2noc([C@H]3C[C@@H]3F)n2)cc1NC(=O)c1cnn2cc(-c3cn(CC(F)(F)F)nn3)ccc12" > 7.00

---

# Test system: M-07e cells
# Experiment description: M-07e cellular assay (SCF-mediated cell proliferation)
# Assay type: cell-based
# Conditions: Homo sapiens, 72 hours, CellTiter Glo
pEC50: −log10 of the molar value.
Measurement kind: pEC50

Some solved entries appear below for comparison.
- Molecule: "Cc1ccc(-c2noc([C@H]3C[C@@H]3F)n2)cc1NC(=O)c1cnn2ccc(Cl)cc12 [Example 59]"
  pEC50: "6.00 to 7.00"
- Molecule: "Cc1ccc(-c2noc([C@H]3C[C@@H]3F)n2)cc1NC(=O)c1cnn2ccc(N3CCN(C(=O)OC(C)(C)C)[C@H](C)C3)cc12 [Example 241-7]"
  pEC50: "> 7.00"
- Molecule: "Cc1ccc2c(C(=O)Nc3cc(-c4noc([C@H]5C[C@@H]5F)n4)ccc3C)cnn2c1 [Example 61]"
  pEC50: "> 7.00"
- Molecule: "Cc1ccc(-c2noc([C@H]3C[C@@H]3F)n2)cc1NC(=O)c1cnn2ccc(N3CC4(CC(=O)C4)C3)cc12 [Example 231]"
  pEC50: "> 7.00"

Tell us which pEC50 value is on record for Cc1ccc(-c2noc([C@H]3C[C@@H]4[C@H](C3)C4(F)F)n2)cc1NC(=O)c1cnn2ccc(N3CC4(COC4)C3)cc12 [Example 280] > 7.00

Tell us which pEC50 value is on record for Cc1ncc(-c2noc(C3CN(C(=O)C4CC4)C3)n2)cc1NC(=O)c1cnn2ccc(N3CC4(COC4)C3)cc12 [Example 281-87] < 6.00
